- EXPERIMENT: Tmax in C57Bl6 mouse at 10 mg/kg, po administered as single oral dose
- Assay type: ADME, organism-based
- EXPERIMENTAL_SETUP: in vivo
MEASURED_METRIC: Tmax (h)
Just the number in h, nothing appended.

// worked examples, Tmax included
compound="O=C(O)CCCc1cc2cc(Cl)ccc2n1S(=O)(=O)c1ccc2ncsc2c1 [LANIFIBRANOR]" unit_string=h test_value=1
compound=O=C(O)CCc1cc2cc(Cl)ccc2n1S(=O)(=O)c1ccccc1 unit_string=h test_value=1

Query compound follows.
Given O=C(O)CCCc1cc2cc(Cl)ccc2n1S(=O)(=O)c1ccccc1 , state its recorded Tmax.
1

The measured values listed here are drawn from ChEMBL document CHEMBL4020830.
